target: HIV Env of isolate 620345.c01 (clade AE) (HIV); assay: cell-based or functional assay
ASSAY METRIC: IC80 (µg/ml) with constrains

PGDM1400 (antibody, V domains shown) VH: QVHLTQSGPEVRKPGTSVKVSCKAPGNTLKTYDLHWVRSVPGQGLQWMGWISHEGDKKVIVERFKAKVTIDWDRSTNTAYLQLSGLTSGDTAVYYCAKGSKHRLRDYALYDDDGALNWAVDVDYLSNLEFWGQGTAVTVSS VL: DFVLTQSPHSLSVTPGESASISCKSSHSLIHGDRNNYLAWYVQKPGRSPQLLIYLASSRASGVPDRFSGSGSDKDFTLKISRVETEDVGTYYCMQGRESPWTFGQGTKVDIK : > 100 µg/mL
ePGDM13 (antibody, V domains shown) VH: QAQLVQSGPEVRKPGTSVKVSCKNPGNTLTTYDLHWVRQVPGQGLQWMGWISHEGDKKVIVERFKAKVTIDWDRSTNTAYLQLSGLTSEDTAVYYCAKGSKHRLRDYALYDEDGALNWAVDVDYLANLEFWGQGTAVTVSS VL: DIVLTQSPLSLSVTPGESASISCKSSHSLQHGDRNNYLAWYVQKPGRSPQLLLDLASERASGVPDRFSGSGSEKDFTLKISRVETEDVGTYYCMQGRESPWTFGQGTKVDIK : > 100 µg/mL

Next binder, IC80 (µg/ml) with constrains to be filled in.
INPUT: Provide IC80 (µg/ml) with constrains value for the following binder: ePGDM9 (antibody, V domains shown) VH: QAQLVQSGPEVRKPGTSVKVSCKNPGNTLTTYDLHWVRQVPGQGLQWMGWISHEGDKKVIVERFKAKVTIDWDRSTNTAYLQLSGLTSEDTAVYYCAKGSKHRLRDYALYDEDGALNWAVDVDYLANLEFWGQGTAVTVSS VL: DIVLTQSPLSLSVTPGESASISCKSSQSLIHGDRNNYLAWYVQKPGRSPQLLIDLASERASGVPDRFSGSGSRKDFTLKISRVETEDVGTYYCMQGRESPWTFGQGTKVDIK
OUTPUT: > 100 µg/mL
